procedure.summary: in vivo
particulars: rat, po, 150 mg/kg
experimental.readout: Tmax (h)
One number for each entry, in h.

Need Tmax, item OC1C(O)C(O)C(O)C(O)C1O (stereo not shown)
1.2

* * *

procedure.summary: in vivo
particulars: rat, po, 150 mg/kg
experimental.readout: Cmax
Hey, just the number and the unit after it is fine.

Need Cmax, item OC1C(O)C(O)C(O)C(O)C1O (stereo not shown)
131 µg/mL

* * *

procedure.summary: Single oral and intravenous dose pharmacokinetics, dose range-finding study in beagle dogs
Format: in vivo, beagle dog
particulars: beagle, dog, plasma; dogs, single intravenous dose 240 mg/kg; read-out: t1/2 (converted)
experimental.readout: half-life (h)
Answers are plain numbers, in h.

Need half-life, item OC1C(O)C(O)C(O)C(O)C1O (stereo not shown)
2.3

* * *

procedure.summary: Single oral and intravenous dose pharmacokinetics, dose range-finding study in beagle dogs
Format: in vivo, beagle dog
particulars: beagle, dog, plasma; dogs, single oral dose 20 mg/kg
experimental.readout: MRT (h)
One number for each entry, in h.

Need MRT, item OC1C(O)C(O)C(O)C(O)C1O (stereo not shown) [AZD-103, scyllo-inositol]
10.1

* * *

procedure.summary: in vivo
particulars: dog, po, 150 mg/kg
experimental.readout: MRT (h)
Answers are plain numbers, in h.

Need MRT, item OC1C(O)C(O)C(O)C(O)C1O (stereo not shown) [AZD-103, scyllo-inositol]
3.3

* * *

procedure.summary: in vivo
particulars: rat, po, 150 mg/kg
experimental.readout: AUC(0-inf)
Hey, just the number and the unit after it is fine.

Need AUC(0-inf), item OC1C(O)C(O)C(O)C(O)C1O (stereo not shown)
552 µg·h/mL

* * *

procedure.summary: in vivo
particulars: rat, po, 150 mg/kg
experimental.readout: Tmax (h)
Answers are plain numbers, in h.

Need Tmax, item OC1C(O)C(O)C(O)C(O)C1O (stereo not shown)
2.2

* * *

procedure.summary: in vivo
particulars: dog, po, 15 mg/kg
experimental.readout: AUC(0-inf) (ng·h/mL)
Numbers only, in ng·h/mL.

Need AUC(0-inf), item OC1C(O)C(O)C(O)C(O)C1O (stereo not shown)
95200

* * *

procedure.summary: in vivo
particulars: dog, po, 15 mg/kg
Description: Three studies were performed to investigate the pharmacokinetics of oral administration of a scyllo-cyclohexanehexyl (Table 1): Two studies have investigated the single dose PK of oral administration of a scyllo-cyclohexanehexyl in dogs. The 14 day study investigated 18 animals. On Day 1 of this study Cmax and AUC values increased proportionally with dose level of a scyllo-cyclohexanehexyl. […] The extensive brain penetrance of the scyllo-cyclohexanhexyl (see below) may be relevant in this regard.
experimental.readout: MRT (h)
Give bare numbers, in h.

Need MRT, item OC1C(O)C(O)C(O)C(O)C1O (stereo not shown) [AZD-103, scyllo-inositol]
3.5

* * *

procedure.summary: in vivo
particulars: dog, po, 50 mg/kg
experimental.readout: half-life (h)
Give bare numbers, in h.

Need half-life, item OC1C(O)C(O)C(O)C(O)C1O (stereo not shown)
3.8

* * *

procedure.summary: clinical
particulars: male, human, in vivo, po, 5000 mg
experimental.readout: AUC(0-inf) (µg·h/mL)
Answers are plain numbers, in µg·h/mL.

Need AUC(0-inf), item OC1C(O)C(O)C(O)C(O)C1O (stereo not shown) [AZD-103, scyllo-inositol]
507

* * *

procedure.summary: CSF and plasma levels at end of 14 day repeat dose study in dogs
Type: in vivo, dog
particulars: dog, CSF, oral, after 14 days dosing, Dose 30 mg/kg, read-out: CSF level at 24 h
experimental.readout: concentration at 24 h
Hey, just the number and the unit after it is fine.

Need concentration at 24 h, item OC1C(O)C(O)C(O)C(O)C1O (stereo not shown)
4000 ng/mL

* * *

procedure.summary: in vivo
particulars: dog, po, 50 mg/kg
experimental.readout: MRT (h)
Numbers only, in h.

Need MRT, item OC1C(O)C(O)C(O)C(O)C1O (stereo not shown)
5.3

* * *

procedure.summary: in vivo
particulars: rat, po, 150 mg/kg
experimental.readout: MRT at 28 days
Hey, just the number and the unit after it is fine.

Need MRT at 28 days, item OC1C(O)C(O)C(O)C(O)C1O (stereo not shown) [AZD-103, scyllo-inositol]
4.6 h

* * *

procedure.summary: clinical
particulars: male, human, in vivo, po, 500 mg
experimental.readout: Tmax (h)
Give bare numbers, in h.

Need Tmax, item OC1C(O)C(O)C(O)C(O)C1O (stereo not shown) [AZD-103, scyllo-inositol]
4

* * *

procedure.summary: Single oral and intravenous dose pharmacokinetics, dose range-finding study in beagle dogs
Assay type: in vivo, beagle dog
particulars: beagle, dog, plasma; dogs, single oral dose 240 mg/kg
experimental.readout: AUC(0-t)
Hey, just the number and the unit after it is fine.

Need AUC(0-t), item OC1C(O)C(O)C(O)C(O)C1O (stereo not shown) [AZD-103, scyllo-inositol]
477 µg·h/mL

* * *

procedure.summary: in vivo
particulars: rat, po, 15 mg/kg, 28 days
experimental.readout: Vd (L/kg)
Answers are plain numbers, in L/kg.

Need Vd, item OC1C(O)C(O)C(O)C(O)C1O (stereo not shown)
1.14

* * *

procedure.summary: in vivo
particulars: dog, po, 15 mg/kg
experimental.readout: CL/F (L/h/kg)
One number for each entry, in L/h/kg.

Need CL/F, item OC1C(O)C(O)C(O)C(O)C1O (stereo not shown) [AZD-103, scyllo-inositol]
0.0419

* * *

procedure.summary: CSF and plasma levels at end of 14 day repeat dose study in dogs
Assay type: in vivo, dog
particulars: dog, CSF, oral, after 14 days dosing, Dose 300 mg/kg, read-out: CSF level at 24 h
experimental.readout: concentration at 24 h (ng/mL)
Give bare numbers, in ng/mL.

Need concentration at 24 h, item OC1C(O)C(O)C(O)C(O)C1O (stereo not shown)
10900

* * *

procedure.summary: in vivo
particulars: dog, po, 150 mg/kg
experimental.readout: MRT (h)
Give bare numbers, in h.

Need MRT, item OC1C(O)C(O)C(O)C(O)C1O (stereo not shown)
4.6

* * *

procedure.summary: in vivo
particulars: dog, po, 50 mg/kg
experimental.readout: CL/F (mL/min/kg)
Numbers only, in mL/min/kg.

Need CL/F, item OC1C(O)C(O)C(O)C(O)C1O (stereo not shown)
0.86

* * *

procedure.summary: Single oral and intravenous dose pharmacokinetics, dose range-finding study in beagle dogs
Format: in vivo, beagle dog
particulars: beagle, dog, plasma; dogs, single oral dose 80 mg/kg
experimental.readout: AUC(0-inf)
Hey, just the number and the unit after it is fine.

Need AUC(0-inf), item OC1C(O)C(O)C(O)C(O)C1O (stereo not shown)
246 µg·h/mL

* * *

procedure.summary: in vivo
particulars: dog, po, 150 mg/kg
experimental.readout: Cmax (µg/mL)
One number for each entry, in µg/mL.

Need Cmax, item OC1C(O)C(O)C(O)C(O)C1O (stereo not shown)
124

* * *

procedure.summary: in vivo
particulars: rat, po, 50 mg/kg
experimental.readout: Tmax
Hey, just the number and the unit after it is fine.

Need Tmax, item OC1C(O)C(O)C(O)C(O)C1O (stereo not shown) [AZD-103, scyllo-inositol]
1.5 h

* * *

procedure.summary: clinical
particulars: male, human, in vivo, po, 7000 mg
experimental.readout: AUC(0-t) (µg·h/mL)
Answers are plain numbers, in µg·h/mL.

Need AUC(0-t), item OC1C(O)C(O)C(O)C(O)C1O (stereo not shown)
860

* * *

procedure.summary: Brain penetrance: plasma and CSF pharmacokinetics after single oral doses in dogs
Format: in vivo, dog
particulars: dog, CSF, single oral dose 240 mg/kg
experimental.readout: AUC(0-t) (µg·h/mL)
One number for each entry, in µg·h/mL.

Need AUC(0-t), item OC1C(O)C(O)C(O)C(O)C1O (stereo not shown) [AZD-103, scyllo-inositol]
384

* * *

procedure.summary: Single oral and intravenous dose pharmacokinetics, dose range-finding study in beagle dogs
Assay type: in vivo, beagle dog
particulars: beagle, dog, plasma, po, 20 mg/kg, dogs, single oral dose 20 mg/kg
experimental.readout: Tmax (h)
Give bare numbers, in h.

Need Tmax, item OC1C(O)C(O)C(O)C(O)C1O (stereo not shown) [AZD-103, scyllo-inositol]
1.5

* * *

procedure.summary: Single oral and intravenous dose pharmacokinetics, dose range-finding study in beagle dogs
Format: in vivo, beagle dog
particulars: dog, plasma, other: oral and intravenous (range over both routes); beagle dogs, 20, 80 and 240 mg/kg p.o., 80 and 240 mg/kg i.v.; read-out: t½
experimental.readout: half-life

Need half-life, item OC1C(O)C(O)C(O)C(O)C1O (stereo not shown)
120 to 300 min

* * *

procedure.summary: in vivo
particulars: dog, po, 150 mg/kg
experimental.readout: AUC(0-inf) (µg·h/mL)
One number for each entry, in µg·h/mL.

Need AUC(0-inf), item OC1C(O)C(O)C(O)C(O)C1O (stereo not shown)
557

* * *

procedure.summary: Brain penetrance: plasma and CSF pharmacokinetics after single oral doses in dogs
Type: in vivo, dog
particulars: dog, CSF, single oral dose 20 mg/kg
experimental.readout: Cmax (ng/mL)
Answers are plain numbers, in ng/mL.

Need Cmax, item OC1C(O)C(O)C(O)C(O)C1O (stereo not shown)
2300
